All values here come from patent US20160176924A1.

target: PDZ2 of PSD-95 (Homo sapiens, UniProt P78352); construct: PDZ2 (residues 155-249); made in house; host or cells: E. coli BL21-DE3 pLysS; experiment: FP heterologous competition binding assay; conditions: FP competition; mean ± SEM; NA = no activity/affinity
pKi: −log10 of the molar value. Ends that are not written are not given here.
Result type: pKi

substance="KSGYEKLSSIESDV-OH [NR2B (1), reference compound]" numeric_result=5.39

###

target: PDZ1 of PSD-95 (Homo sapiens); construct: PSD-95 PDZ1 (residues 61-151); made in house; host or cells: E. coli BL21-DE3 pLysS; test: FP heterologous competition binding assay; conditions: FP competition; mean ± SEM; NA = no activity/affinity
Ends that are not written are not given here.
Result type: Ki

substance="KSGYEKLSSIESDV-OH [NR2B (1), reference compound]" target_or_test_system="PDZ1 of PSD-95 (Homo sapiens)" result_type=Ki result="18 µM"

###

assay: Human blood plasma stability assay; assay type: in vitro ADME; settings: human, plasma, Blood plasma half life (T1/2)
Result type: half-life at […] (h)

structure_smiles=CC[C@H](C)[C@H](NC(=O)CCOCCOCCOCCOCCOCCOCCOCCOCCOCCOCCOCCOCCOCCC(=O)N[C@H](C(=O)N[C@@H](C)C(=O)N[C@H](C(=O)N[C@@H](C)C(=O)N[C@H](C(=O)O)C(C)C)[C@@H](C)O)[C@@H](C)CC)C(=O)N[C@@H](C)C(=O)N[C@H](C(=O)N[C@@H](C)C(=O)N[C@H](C(=O)O)C(C)C)[C@@H](C)O result_type="half-life at […]" numeric_result=3.05

###

target: PDZ1 of PSD-95 (Homo sapiens, UniProt P78352)
pKi: −log10 of the molar value.
pKi by entry:
Result type: pKi

compound="CC(C)[C@H](NC(=O)[C@H](C)NC(=O)[C@@H](NC(=O)[C@H](CCC(=O)O)NCC1CCCCC1)C(C)O)C(=O)O (stereo partly drawn)" numeric_result=6.00
compound="CN[C@@H](CCC(=O)O)C(=O)N[C@H](C(=O)N[C@@H](C)C(=O)N[C@H](C(=O)O)C(C)C)C(C)O (stereo partly drawn)" numeric_result=4.96
compound=CC(C)[C@H](NC(=O)[C@H](C)NC(=O)[C@@H](NC(=O)[C@H](C)NCCC1CCCCC1)[C@@H](C)O)C(=O)O numeric_result=5.05

###

biological target: UniProt P78352
Peptide text beside a SMILES is read from it.
Listed here are molecules together with their documented Ki.
Result type: Ki (µM)

molecule="CC(C)[C@H](NC(=O)[C@H](C)NC(=O)[C@@H](NC(=O)[C@H](CCC(=O)O)NCCc1ccc2ccccc2c1)C(C)O)C(=O)O (stereo partly drawn) [Compound 63, N-(Naphtalene-2-yl)ethyl-ETAV]" result_type=Ki numeric_result=1
molecule="CC(C)C[C@H](NC(=O)CNC(=O)[C@H](CO)NC(=O)[C@@H](N)CCCCN)C(=O)N[C@@H](CC(=O)O)C(=O)N[C@H](C(=O)N[C@@H](CCCCN)C(=O)N[C@@H](CC(N)=O)C(=O)N[C@@H](Cc1ccc(O)cc1)C(=O)N[C@@H](CCCCN)C(=O)N[C@@H](CCC(N)=O)C(=O)N[C@H](C(=O)N[C@@H](CO)C(=O)N[C@H](C(=O)O)C(C)C)[C@@H](C)O)[C@@H](C)O [CRIPT (2), reference compound]" result_type=Ki numeric_result=97
molecule="CC(C)[C@H](NC(=O)[C@H](C)NC(=O)[C@@H](N)[C@@H](C)O)C(=O)O [TAV (49), TAV] (H-Thr-Ala-Val-OH; N-terminus and C-terminus assumed)" result_type=Ki numeric_result=42
